Listed next: entries and their corresponding kon.
# assay-target: T1, phospholipase A2 (PLA2) (Homo sapiens (Human), UniProt O15496 43-165)
# T1 construct: PLA2 as used in Biacore, MCAB binning, peptide scan and the purified-antibody functional assay; also called PLA2 antigen
# T1 sequence: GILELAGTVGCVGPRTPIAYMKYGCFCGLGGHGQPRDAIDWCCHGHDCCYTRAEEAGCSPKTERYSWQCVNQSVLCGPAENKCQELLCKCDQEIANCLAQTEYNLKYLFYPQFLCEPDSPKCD
# procedure-summary: Biacore 2000, captured Ab, global 1:1 fit
Field format: number, assumed M⁻¹ s⁻¹, no unit text.

- binder: "anti-PLA2 mAb 1.7 (antibody, IgG2, V domains shown, also called 1.7.1) VH: EVQLVQSGAEVKKPGESLKISCKGSGYSFISYWIGWVRQMPGKGLEWMGIIYPGDSDTRYSPSFQGQVTISADKSISTAYLQWSSLKASDTAMYYCARSWTYALDVWGQGTAVTVSS VL: EIVLTQSPGTLSLSPGERATLSCRPSQSVRSNYLTWYQQKPGQAPRLLIYGASTRATGIPDRFSGSGSGTDFTLTVSRLEPEDFAVYYCQQYGSSPLTFGGGTKVEIKR"
  quantity-kind: "kon"
  numeric-result: 47400
- binder: "anti-PLA2 mAb 1.18 (antibody, IgG2, V domains shown) VH: EVQLVQSGAEVKKPGESLKISCKGSGYSFTNYWINWVRQMPGKGLEWMGIIYPGDSDTRYSPSFQGQVTISADKSISTAYLQWSSLKASDTAMYYCARHRLGFDYWGQGTLVTVSS VL: DIQMTQSPSSLSASVGDRVTITCRASQGIRNDLDWCQQKPGKAPKRLIYAASSLQSGVPSRFSGSGSGTEFTLTISSLQPEDFATYYCLQHNNYPPTFGQGTKVEIKR"
  quantity-kind: "kon"
  numeric-result: 38600

Continue with the binder presented below.
Short answer for anti-PLA2 mAb 2.15 (antibody, IgG4, V domains shown) VH: QVQLVESGGGVVQPGRSLRLSCAASGFTFSSYGMHWVRQAPGKGLEWVAVIWYDGSNKYYADSVKGRFTISRDNSKNTLYLQMNSLRAEDTAVYYCARRDWNYAFDIWGQGTMVTVSS VL: DIQMTQSPSSLSASVGDRVTITCRASQSISNYLNWYQQKPGKAPKFLIYAASSLQSGAPSRFSGSGSGTDFTLTISSLQPEDFATYYCQQSYSTPITFGQGTRLEIKR : kon was 8880
